- target_or_system: HEK 293 GPR73 (prokineticin 1 receptor) expressing cells (Homo sapiens)
- Sequence (Q8TCW9 whole entry): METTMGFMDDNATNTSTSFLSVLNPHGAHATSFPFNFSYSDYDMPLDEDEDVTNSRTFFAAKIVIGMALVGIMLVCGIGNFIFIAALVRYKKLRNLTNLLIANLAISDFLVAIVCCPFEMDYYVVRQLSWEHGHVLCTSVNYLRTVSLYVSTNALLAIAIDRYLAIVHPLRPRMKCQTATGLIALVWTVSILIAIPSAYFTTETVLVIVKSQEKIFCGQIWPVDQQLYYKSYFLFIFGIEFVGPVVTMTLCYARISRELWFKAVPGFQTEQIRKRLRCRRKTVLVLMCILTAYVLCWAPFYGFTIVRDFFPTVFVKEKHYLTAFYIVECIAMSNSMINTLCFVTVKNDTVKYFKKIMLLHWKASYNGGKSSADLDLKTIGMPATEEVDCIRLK
- protocol_description: PK1 functional assay: screening for PK1 antagonists on the FLIPR (calcium fluorescence)
- particulars: HEK 293 GPR73 cells, PK1 ligand at EC50, multiple values = repeat tests, read-out: Ca^2+ Mobilization IC50
pIC50: −log10 of the molar value.
Assignment: determine reported pIC50 for the given compounds.

Input line: // lookup pIC50 | system=HEK 293 GPR73 (prokineticin 1 receptor) expressing cells (Homo sapiens) | key= N=C(N)NCCNc1nc(=O)n(Cc2ccccc2)c(=O)n1Cc1ccc([N+](=O)[O-])cc1
Output line: < 5.00

Input line: Give the reported pIC50 for COc1ccc(Cn2c(NCCNC(=N)N)nc(=O)n(Cc3cccc(C#N)c3)c2=O)cc1 (system: HEK 293 GPR73 (prokineticin 1 receptor) expressing cells (Homo sapiens)).
Output line: < 5.00

Input line: HEK 293 GPR73 (prokineticin 1 receptor) expressing cells (Homo sapiens) / pIC50 / COc1ccc(Cn2c(NCCNC(=N)N)nc(=O)n(Cc3ccc(C(=O)O)cc3)c2=O)cc1 : value?
Output line: < 5.00
